Biological target: hGLP-1R (Homo sapiens, UniProt P43220)
Sequence (P43220 24-463): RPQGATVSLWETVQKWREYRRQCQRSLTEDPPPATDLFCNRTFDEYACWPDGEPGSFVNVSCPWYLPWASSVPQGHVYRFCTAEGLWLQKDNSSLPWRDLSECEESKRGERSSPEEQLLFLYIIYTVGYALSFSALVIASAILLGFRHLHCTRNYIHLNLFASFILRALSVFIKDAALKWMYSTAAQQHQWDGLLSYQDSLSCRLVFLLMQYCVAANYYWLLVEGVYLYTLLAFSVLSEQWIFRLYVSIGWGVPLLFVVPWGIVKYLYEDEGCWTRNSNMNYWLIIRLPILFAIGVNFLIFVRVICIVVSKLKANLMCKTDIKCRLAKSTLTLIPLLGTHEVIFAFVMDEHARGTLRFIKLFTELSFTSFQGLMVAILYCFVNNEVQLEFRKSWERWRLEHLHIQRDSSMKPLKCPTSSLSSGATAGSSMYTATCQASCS
Assay: Functional cAMP activation in the presence of 0.1% casein (no HSA);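 note: intracellular cAMP rise after 30 min at 37 °C read by HTRF, normalized between buffer only (0%) and maximal control ligand (100%), four-parameter variable-slope fit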
Assay type: cell-based
Conditions: read-out: Relative cAMP EC50, hGLP-1R
Starred links: 1 amine or outer side, 2 acyl side, 3 side chain; linkers in the order of their positions; H or OH if unused. Non-standard residues stand in square brackets, D forms with d. Groups on a side chain read outwards from the residue. No end group written: not given here. *: point of attachment. C18 diacid = O=C(O)CCCCCCCCCCCCCCCCC(=O)*; αMePhe(2-F) = C[C@](N)(Cc1ccccc1F)C(=O)O; γGlu = O=C(O)[C@H](CCC(=O)[*:2])N[*:1]; αMe4Pal = C[C@](N)(Cc1ccncc1)C(=O)O; αMeY = C[C@](N)(Cc1ccc(O)cc1)C(=O)O; 4Pal = N[C@@H](Cc1ccncc1)C(=O)O; αMeL = CC(C)C[C@](C)(N)C(=O)O; αMeS = C[C@](N)(CO)C(=O)O; Orn = NCCC[C@H](N)C(=O)O; AEEA = NCCOCCOCC(=O)O; Aib = CC(C)(N)C(=O)O
ASSAY READOUT: EC50 (nM)
Give bare numbers, in nM.

SUBSTANCE	UNIT INFO	EC50
H-Y[Aib]QGT[αMePhe(2-F)]TSD[4Pal]SILLDKK([γGlu-γGlu-C18 diacid])AQ[Aib]AFIEWLQEGGPSSGEPPPSGTEE-NH2 [Example 579]	nM	0.252

// for each substance below, give its EC50
1. H-Y[Aib]QGT[αMePhe(2-F)]TSDYSILLDKK([AEEA-γGlu-C18 diacid])AQ[Aib]AFIE[4Pal]LEEGGPSSGAPPPSEG-NH2 [Example 411]
2. H-Y[Aib]QGT[αMePhe(2-F)]TSD[4Pal]SILLD[Orn]K([γGlu-γGlu-C18 diacid])AQ[Aib]AFIEYLQEGGPSSGEPPPSGTEE-NH2 [Example 583]
3. H-Y[Aib]QGT[αMePhe(2-F)]TSD[4Pal]SI[αMeL]LD[Orn]K([γGlu-γGlu-C18 diacid])AQ[αMe4Pal]EFI[dE][αMeY]LQEGGPSSGAPPPSGS-NH2 [Example 647]
4. H-Y[Aib]QGT[αMePhe(2-F)]TSD[4Pal]SILLD[Orn]K([γGlu-γGlu-C18 diacid])AQ[Aib]AFIEYLEEGGPSSGAPPPSGTE-NH2 [Example 513]
5. H-Y[Aib]QGT[αMePhe(2-F)]TSD[4Pal]SI[αMeL]LD[Orn]K([AEEA-γGlu-C18 diacid])AQ[αMe4Pal][Orn]FI[dE][αMeY]LIEGGPSSGEPPPETE-NH2 [Example 678]

Result:
[0.709, 0.542, 0.872, 0.634, 0.251]

// for each substance below, give its EC50
1. H-Y[Aib]QGT[αMePhe(2-F)]TSD[4Pal]SILLDKK([γGlu-γGlu-C18 diacid])AQ[Aib]AFIEYLEEGGPSSGEPPPSGTGE-NH2 [Example 607]
2. H-Y[Aib]QGT[αMePhe(2-F)]TSDYSI[αMeL]LD[Orn]K([AEEA-γGlu-C18 diacid])AQ[Aib]AFI[dE]YLLEGGPSSGAPPPSEG-NH2 [Example 404]
3. H-Y[Aib]QGT[αMePhe(2-F)]TSD[4Pal]SI[αMeL]LD[Orn]K([γGlu-γGlu-C18 diacid])AQ[αMe4Pal]EFI[dE][αMeY]LIEGGPSSGAPPPSGE-NH2 [Example 616]

Result:
1. 1.15
2. 0.217
3. 0.29

// for each substance below, give its EC50
1. H-Y[Aib]QGT[αMePhe(2-F)]TSD[4Pal]SILLDKK([γGlu-γGlu-C18 diacid])AQ[Aib]AFIE[αMe4Pal]LEEGGPSSGAPPPSGTE-NH2 [Example 552]
2. Y[Aib]QGT[αMePhe(2-F)]TSD[4Pal][αMeS]I[αMeL]LD[Orn]K([γGlu-γGlu-C18 diacid])AQ[Aib][Orn]FI[dE][αMeY]LQEGGPSSGEPPPEGTE-NH2 [Example 503]

Result:
0.804
0.525
